Reported values of viability, T/C for individual entries
system: 188146-221-R-J1-PDC complex spheroid viability; assay: Anticancer human tumor 188146-221-R-J1-PDC patient-derived colon adenocarcinoma cell line growth inhibition [POLQ]; conditions: second compound 0.1 µM; first compound 0.0316 µM; active compounds read low
observed-property: viability, T/C (%)

{"compound": "CC(C)n1c(=O)n(C)c2cnc3cc(F)c(-c4ccc(OCCCN5CCCCC5)nc4)cc3c21 + COC1C(OC(N)=O)C(O)C(Oc2ccc3c(O)c(NC(=O)c4ccc(O)c(CC=C(C)C)c4)c(=O)oc3c2C)OC1(C)C", "value-reported": 103}
{"compound": "CC1COCCN1c1cc(-c2ccnn2C)c2ccnc(-c3ccn[nH]3)c2n1 (stereo not given) + Nc1ccc(C#CCN(C(=O)Cc2ncc(C(F)(F)F)cc2C(F)(F)F)c2ccc(F)cc2)nn1", "value-reported": 86.4}
{"compound": "O=C(Nc1ccc(O)c(NS(=O)(=O)c2ccc(F)cc2)c1)c1ccc(-c2ccccc2)cc1 + COC1C(OC(N)=O)C(O)C(Oc2ccc3c(O)c(NC(=O)c4ccc(O)c(CC=C(C)C)c4)c(=O)oc3c2C)OC1(C)C", "value-reported": 106}
{"compound": "CC1COCCN1c1cc(-c2ccnn2C)c2ccnc(-c3ccn[nH]3)c2n1 (stereo not given) + COC1C(OC(N)=O)C(O)C(Oc2ccc3c(O)c(NC(=O)c4ccc(O)c(CC=C(C)C)c4)c(=O)oc3c2C)OC1(C)C", "value-reported": 94.2}
{"compound": "CNCc1ccc(-c2[nH]c3cc(F)cc4c3c2CCNC4=O)cc1 + COC1C(OC(N)=O)C(O)C(Oc2ccc3c(O)c(NC(=O)c4ccc(O)c(CC=C(C)C)c4)c(=O)oc3c2C)OC1(C)C", "value-reported": 118}
{"compound": "Nc1ccn(C2OC(CO)C(O)C2(F)F)c(=O)n1 (stereo not given) + Cc1cccc(N(C)C(=O)C2C(O)CCN2c2nc(C)cc(C(F)(F)F)c2C#N)c1", "value-reported": 41}
{"compound": "CC[C@@]1(O)C(=O)OCc2c1cc1n(c2=O)Cc2cc3c(CN(C)C)c(O)ccc3nc2-1 + Nc1ccc(C#CCN(C(=O)Cc2ncc(C(F)(F)F)cc2C(F)(F)F)c2ccc(F)cc2)nn1", "value-reported": 84.9}
{"compound": "O=C(c1cc(Cc2n[nH]c(=O)c3ccccc23)ccc1F)N1CCN(C(=O)C2CC2)CC1 + Cc1cccc(N(C)C(=O)C2C(O)CCN2c2nc(C)cc(C(F)(F)F)c2C#N)c1", "value-reported": 108}
{"compound": "CC[C@@]1(O)C(=O)OCc2c1cc1n(c2=O)Cc2cc3c(CN(C)C)c(O)ccc3nc2-1 + COC1C(OC(N)=O)C(O)C(Oc2ccc3c(O)c(NC(=O)c4ccc(O)c(CC=C(C)C)c4)c(=O)oc3c2C)OC1(C)C", "value-reported": 87.9}
{"compound": "CCCS(=O)(=O)Nc1ccc(F)c(C(=O)c2c[nH]c3ncc(-c4ccc(Cl)cc4)cc23)c1F + COC1C(OC(N)=O)C(O)C(Oc2ccc3c(O)c(NC(=O)c4ccc(O)c(CC=C(C)C)c4)c(=O)oc3c2C)OC1(C)C", "value-reported": 110}

----------
test system: 188146-221-R-J1-PDC complex spheroid viability; assay: Anticancer human tumor 188146-221-R-J1-PDC cell line growth inhibition [POLQ]; settings: second compound 0.1 µM; first compound 0.0316 µM; active compounds read low;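 also: spheroids exposed to compounds for seven days; 100% = DMSO vehicle control viability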
Reported values of viability, T/C for individual entries
observed-property: viability, T/C (%)

{"compound": "CC1COCCN1c1cc(C2(S(C)(=N)=O)CC2)nc(-c2ccnc3[nH]ccc23)n1 (stereo unspecified) + Cc1cccc(N(C)C(=O)C2C(O)CCN2c2nc(C)cc(C(F)(F)F)c2C#N)c1", "result-unit": "%", "value-reported": 114}
{"compound": "CC1COCCN1c1cc(C2(O)CC3CCC(C2)O3)c2cnn(-c3ccn[nH]3)c2n1 (stereo unspecified) + Cc1cccc(N(C)C(=O)C2C(O)CCN2c2nc(C)cc(C(F)(F)F)c2C#N)c1", "result-unit": "%", "value-reported": 95.3}
{"compound": "C=CC(=O)N1CCN(c2nc(=O)n(-c3c(C)ccnc3C(C)C)c3nc(-c4c(O)cccc4F)c(F)cc23)C(C)C1 (stereo unspecified) + COC1C(OC(N)=O)C(O)C(Oc2ccc3c(O)c(NC(=O)c4ccc(O)c(CC=C(C)C)c4)c(=O)oc3c2C)OC1(C)C", "result-unit": "%", "value-reported": 107}
{"compound": "COc1cccc(OCCCN)c1-c1cc(Nc2cnc(C#N)cn2)n[nH]1 + COC1C(OC(N)=O)C(O)C(Oc2ccc3c(O)c(NC(=O)c4ccc(O)c(CC=C(C)C)c4)c(=O)oc3c2C)OC1(C)C", "result-unit": "%", "value-reported": 51.9}
{"compound": "CCc1cc2c(N3CCc4c(cc(Cn5ccnc5)cc4-c4cn(C)nc4C(F)(F)F)C3=O)cc(C)nc2c(OC)n1 + COC1C(OC(N)=O)C(O)C(Oc2ccc3c(O)c(NC(=O)c4ccc(O)c(CC=C(C)C)c4)c(=O)oc3c2C)OC1(C)C", "result-unit": "%", "value-reported": 108}
{"compound": "COc1cc2cc(C(=O)CCC(=O)O)sc2cc1OC + Nc1ccc(C#CCN(C(=O)Cc2ncc(C(F)(F)F)cc2C(F)(F)F)c2ccc(F)cc2)nn1", "result-unit": "%", "value-reported": 105}
{"compound": "CCc1cc2c(N3CCc4c(cc(Cn5ccnc5)cc4-c4cn(C)nc4C(F)(F)F)C3=O)ccnc2c(OC)n1 + Nc1ccc(C#CCN(C(=O)Cc2ncc(C(F)(F)F)cc2C(F)(F)F)c2ccc(F)cc2)nn1", "result-unit": "%", "value-reported": 110}
{"compound": "COc1cccc2c1C(=O)c1c(O)c3c(c(O)c1C2=O)CC(O)(C(=O)CO)CC3OC1CC(N)C(O)C(C)O1 (stereo unspecified) + Nc1ccc(C#CCN(C(=O)Cc2ncc(C(F)(F)F)cc2C(F)(F)F)c2ccc(F)cc2)nn1", "result-unit": "%", "value-reported": 80.5}
{"compound": "CCCS(=O)(=O)Nc1ccc(F)c(C(=O)c2c[nH]c3ncc(-c4ccc(Cl)cc4)cc23)c1F + Nc1ccc(C#CCN(C(=O)Cc2ncc(C(F)(F)F)cc2C(F)(F)F)c2ccc(F)cc2)nn1", "result-unit": "%", "value-reported": 119}
{"compound": "Cn1ncnc1[C@H]1c2n[nH]c(=O)c3cc(F)cc(c23)N[C@@H]1c1ccc(F)cc1 + Nc1ccc(C#CCN(C(=O)Cc2ncc(C(F)(F)F)cc2C(F)(F)F)c2ccc(F)cc2)nn1", "result-unit": "%", "value-reported": 100}
{"compound": "CC1COCCN1c1cc(C2(S(C)(=N)=O)CC2)nc(-c2ccnc3[nH]ccc23)n1 (stereo unspecified) + Nc1ccc(C#CCN(C(=O)Cc2ncc(C(F)(F)F)cc2C(F)(F)F)c2ccc(F)cc2)nn1", "result-unit": "%", "value-reported": 106}
{"compound": "COc1ccc([C@@H](O)c2cc(-c3ncnc4cc(N5CCOCC5)ccc34)c(F)cc2Cl)nn1 + Cc1cccc(N(C)C(=O)C2C(O)CCN2c2nc(C)cc(C(F)(F)F)c2C#N)c1", "result-unit": "%", "value-reported": 93.6}
{"compound": "Nc1ccn(C2OC(CO)C(O)C2(F)F)c(=O)n1 (stereo unspecified) + Nc1ccc(C#CCN(C(=O)Cc2ncc(C(F)(F)F)cc2C(F)(F)F)c2ccc(F)cc2)nn1", "result-unit": "%", "value-reported": 33.5}
{"compound": "CNCc1ccc(-c2[nH]c3cc(F)cc4c3c2CCNC4=O)cc1 + Nc1ccc(C#CCN(C(=O)Cc2ncc(C(F)(F)F)cc2C(F)(F)F)c2ccc(F)cc2)nn1", "result-unit": "%", "value-reported": 111}
{"compound": "O=c1[nH]cc(F)c(=O)[nH]1 + Cc1cccc(N(C)C(=O)C2C(O)CCN2c2nc(C)cc(C(F)(F)F)c2C#N)c1", "result-unit": "%", "value-reported": 102}
{"compound": "COc1cc(C2c3cc4c(cc3C(OC3OC5COC(C)OC5C(O)C3O)C3COC(=O)C23)OCO4)cc(OC)c1O (stereo unspecified) + COC1C(OC(N)=O)C(O)C(Oc2ccc3c(O)c(NC(=O)c4ccc(O)c(CC=C(C)C)c4)c(=O)oc3c2C)OC1(C)C", "result-unit": "%", "value-reported": 124}
{"compound": "C=CC(=O)N1CCN(c2nc(=O)n(-c3c(C)ccnc3C(C)C)c3nc(-c4c(O)cccc4F)c(F)cc23)C(C)C1 (stereo unspecified) + Cc1cccc(N(C)C(=O)C2C(O)CCN2c2nc(C)cc(C(F)(F)F)c2C#N)c1", "result-unit": "%", "value-reported": 108}
{"compound": "COc1cc2cc(C(=O)CCC(=O)O)sc2cc1OC + Cc1cccc(N(C)C(=O)C2C(O)CCN2c2nc(C)cc(C(F)(F)F)c2C#N)c1", "result-unit": "%", "value-reported": 102}
{"compound": "CCc1cc2c(N3CCc4c(cc(Cn5ccnc5)cc4-c4cn(C)nc4C(F)(F)F)C3=O)cc(C)nc2c(OC)n1 + Nc1ccc(C#CCN(C(=O)Cc2ncc(C(F)(F)F)cc2C(F)(F)F)c2ccc(F)cc2)nn1", "result-unit": "%", "value-reported": 119}
{"compound": "CCc1cc2c(N3CCc4c(cc(Cn5ccnc5)cc4-c4cn(C)nc4C(F)(F)F)C3=O)ccnc2c(OC)n1 + Cc1cccc(N(C)C(=O)C2C(O)CCN2c2nc(C)cc(C(F)(F)F)c2C#N)c1", "result-unit": "%", "value-reported": 117}
{"compound": "CC1COCCN1c1cc(C2(O)CC3CCC(C2)O3)c2cnn(-c3ccn[nH]3)c2n1 (stereo unspecified) + Nc1ccc(C#CCN(C(=O)Cc2ncc(C(F)(F)F)cc2C(F)(F)F)c2ccc(F)cc2)nn1", "result-unit": "%", "value-reported": 109}

// provenance: PubChem BioAssay AID1963851
